Data provenance: paper PMC5867211

- Tested on: Hep3B human hepatoma cell line
- ASSAY EXPLANATION: 2D cell viability
- Format: cell-based
- EXPERIMENTAL SETUP: Homo sapiens, Hep3B, 72 h, read-out: IC50, 2D cultured Hep3B cells in 96-well plates

[
  {
    "MOLECULE": "CCc1oc2ccccc2c1C(=O)c1cc(Br)c(O)c(Br)c1",
    "IC50 [µM]": 58
  },
  {
    "MOLECULE": "CC(=O)Nc1ccc(O)cc1",
    "IC50 [µM]": 300
  },
  {
    "MOLECULE": "O=C(O)Cc1ccccc1Nc1c(Cl)cccc1Cl",
    "IC50 [µM]": 120
  },
  {
    "MOLECULE": "C[C@@](Cc1ccc(O)c(O)c1)(NN)C(=O)O",
    "IC50 [µM]": 46
  },
  {
    "MOLECULE": "Cc1ccc(N(CC2=NCCN2)c2cccc(O)c2)cc1",
    "IC50 [µM]": 48
  },
  {
    "MOLECULE": "C[C@]12CC[C@@H]3c4ccc(O)cc4CC[C@H]3[C@@H]1CC[C@@H]2O",
    "IC50 [µM]": 53
  },
  {
    "MOLECULE": "CCCNC(=O)NS(=O)(=O)c1ccc(Cl)cc1 [Chlorpropamide]",
    "IC50 [µM]": 300
  }
]

* * *

- Tested on: Hep3B human hepatoma cell line
- ASSAY EXPLANATION: 2D cell viability
- Format: cell-based
- EXPERIMENTAL SETUP: Homo sapiens, Hep3B, 72 h, read-out: IC50, 2D cultured Hep3B cells in 96-well plates

[
  {
    "COMPOUND": "CC(C)C(=O)Nc1ccc([N+](=O)[O-])c(C(F)(F)F)c1 [Flutamide]",
    "IC50 (µM)": 45
  },
  {
    "COMPOUND": "Nc1ccc(/N=N/c2ccccc2)c(N)n1 [Phenazopyridine]",
    "IC50 (µM)": 55
  },
  {
    "COMPOUND": "CN(C)CCCN1c2ccccc2Sc2ccccc21 [Promazine]",
    "IC50 (µM)": 21
  },
  {
    "COMPOUND": "CN(C)CCCN1c2ccccc2CCc2ccccc21 [Imipramine]",
    "IC50 (µM)": 5
  },
  {
    "COMPOUND": "COc1ccccc1Oc1c(NS(=O)(=O)c2ccc(C(C)(C)C)cc2)nc(-c2ncccn2)nc1OCCO [Bosentan]",
    "IC50 (µM)": 55
  },
  {
    "COMPOUND": "CC(Cc1ccc(O)cc1)NCC(O)c1cc(O)cc(O)c1 (stereo not shown) [Fenoterol]",
    "IC50 (µM)": 300
  },
  {
    "COMPOUND": "O=C1CC2(CCCC2)CC(=O)N1CCCCN1CCN(c2ncccn2)CC1 [Buspirone]",
    "IC50 (µM)": 170
  },
  {
    "COMPOUND": "Cc1cccc(Nc2ccccc2C(=O)O)c1C [Mefenamic acid]",
    "IC50 (µM)": 260
  },
  {
    "COMPOUND": "CC(CCc1ccccc1)NCC(O)c1ccc(O)c(C(N)=O)c1 (stereo not shown) [Labetalol]",
    "IC50 (µM)": 150
  },
  {
    "COMPOUND": "CC1=C(CC(=O)O)c2cc(F)ccc2/C1=C\\c1ccc([S+](C)[O-])cc1 (stereo not shown) [Sulindac]",
    "IC50 (µM)": 300
  }
]

* * *

- ASSAY EXPLANATION: in vitro
- EXPERIMENTAL SETUP: human

[
  {
    "MOLECULE": "CC(Cc1ccc(O)cc1)NCC(O)c1cc(O)cc(O)c1 (stereo not shown) [Fenoterol]",
    "IC50, µM": 290
  }
]
